The values you see were collected from the supplement of paper PMC4862054.

Here the recorded normalised viability is given for each entry.
- Test system: HCC1143
- Protocol notes: normalised viability (% of control), CellTiter-Blue; higher = more viable cells (about 100 = DMSO control)
- Experimental context: 10000 nM; incubation time: 72 h
Give just the number in %; leave the unit off.

See these solved cases before continuing.
COc1ccc(C2=N[C@@H](c3ccc(Cl)cc3)[C@@H](c3ccc(Cl)cc3)N2C(=O)N2CCNC(=O)C2)c(OC(C)C)c1	82.9
CN1CCN(c2ccc3nc(-c4c(N)c5c(F)cccc5[nH]c4=O)[nH]c3c2)CC1	69.8
COc1cc(Nc2ncc(F)c(Nc3ccc4c(n3)NC(=O)C(C)(C)O4)n2)cc(OC)c1OC	84.4

// next item, normalised viability requested
Request: Request body: readout normalised viability, system HCC1143, query "C#Cc1cccc(Nc2ncnc3cc(OC)c(OCCCCCCC(=O)NO)cc23)c1" . Return the value.
Result: 11.6

* * *

- Test system: MFM-223
- Protocol notes: normalised viability (% of control), CellTiter-Blue; higher = more viable cells (about 100 = DMSO control)
- Experimental context: 100 nM; incubation time: 72 h
Here the recorded normalised viability is given for each entry.
Give just the number in %; leave the unit off.

See these solved cases before continuing.
COc1ncc(-c2ccc3nccc(-c4ccnnc4)c3c2)cc1NS(=O)(=O)c1ccc(F)cc1F	21.3
CS(=O)(=O)OCCCCOS(C)(=O)=O	108

Request: Fill in the blank: the reported normalised viability of "CC(C)C[C@H](NC(=O)[C@H](Cc1ccccc1)NC(=O)c1cnccn1)B(O)O" is ____.
Result: 16.9

Request: Fill in the blank: the reported normalised viability of "CCS(=O)(=O)c1cccc(-c2cc(C(=O)NC3CCN(C)CC3)c(C)c3[nH]c4ncc(C)cc4c23)c1" is ____.
Result: 55

* * *

Here the recorded normalised response is given for each entry.
- Tested on: MDA-MB-453
- Protocol notes: normalised response (% of control), CellTiter-Glo; higher = more viable cells (100 = DMSO, 0 = benzethonium chloride kill control)
- Experimental context: incubation time: 72 h
Quick note: unit goes after the number.

Request: Fill in the blank: the reported normalised response of CN1CCN(c2ccc3nc(-c4c(N)c5c(F)cccc5[nH]c4=O)[nH]c3c2)CC1 [Dovitinib] (1 nM) is ____.
Result: 102%

Request: Fill in the blank: the reported normalised response of COc1c(C)cnc(Cn2cnc3c(Cl)nc(N)nc32)c1C [BIIB021] (10 nM) is ____.
Result: 102%

Request: Fill in the blank: the reported normalised response of COC(=O)C[C@](O)(CCCC(C)(C)O)C(=O)O[C@@H]1C(OC)=C[C@]23CCCN2CCc2cc4c(cc2[C@H]13)OCO4 [Omacetaxine] (1 nM) is ____.
Result: 121%

* * *

- Tested on: CAL-85-1
- Experimental context: 72 h
Here the recorded EC50, CellTox Green is given for each entry.
Give just the number in nM; leave the unit off.

See these solved cases before continuing.
CC(C)C[C@H](NC(=O)[C@H](Cc1ccccc1)NC(=O)c1cnccn1)B(O)O	5.02
C#Cc1cccc(Nc2ncnc3cc(OC)c(OCCCCCCC(=O)NO)cc23)c1	208
CC(=O)O[C@H]1C(=O)[C@@]2(C)[C@H]([C@H](OC(=O)c3ccccc3)[C@]3(O)C[C@H](OC(=O)[C@H](O)[C@@H](NC(=O)c4ccccc4)c4ccccc4)C(C)=C1C3(C)C)[C@]1(OC(C)=O)CO[C@@H]1C[C@@H]2O	2.42

// next item, EC50, CellTox Green requested
Request: Request body: readout EC50, CellTox Green, system CAL-85-1, query "COC1=C2C[C@@H](C)C[C@H](OC)[C@H](O)[C@@H](C)/C=C(\C)[C@H](OC(N)=O)[C@@H](OC)/C=C\C=C(/C)C(=O)NC(=CC1=O)C2=O" . Return the value.
Result: 2570

* * *

- Tested on: HCC1599
- Experimental context: 72 h
Here the recorded EC50, CellTiter-Glo is given for each entry.
Give just the number in nM; leave the unit off.

Request: Fill in the blank: the reported EC50, CellTiter-Glo of O=C(c1ccc(OCCN2CCCCC2)cc1)c1c(-c2ccc(O)cc2)sc2cc(O)ccc12 [Raloxifene] is ____.
Result: 9620

* * *

Here the recorded normalised response is given for each entry.
- Tested on: CAL-120
- Protocol notes: normalised response (% of control), CellTiter-Glo; higher = more viable cells (100 = DMSO, 0 = benzethonium chloride kill control)
- Experimental context: incubation time: 72 h
Give just the number in %; leave the unit off.

See these solved cases before continuing.
Cn1cnc2c(F)c(Nc3ccc(Br)cc3F)c(C(=O)NOCCO)cc21 [MEK-162] (0.1 nM)	103
Cn1c(=O)c(F)c(Nc2ccc(I)cc2F)c2c(=O)n(C[C@@H](O)CO)cnc21 [TAK-733] (1 nM)	95
Cc1cc(C(C)Nc2ccccc2)c2nc(N3CCOCC3)cc(=O)n2c1 (configuration not stated) [TGX-221] (10 nM)	94.5
C[C@@H]1CCN(C(=O)CC#N)C[C@@H]1N(C)c1ncnc2[nH]ccc12 [Tofacitinib] (500 nM)	98.6
COC1=C2C[C@@H](C)C[C@H](OC)[C@H](O)[C@@H](C)/C=C(\C)[C@H](OC(N)=O)[C@@H](OC)/C=C\C=C(/C)C(=O)NC(=CC1=O)C2=O [Geldanamycin] (1000 nM)	102
FC(F)c1nc2ccccc2n1-c1nc(N2CCOCC2)nc(N2CCOCC2)n1 [ZSTK474] (1 nM)	97.7

// next item, normalised response requested
Request: Fill in the blank: the reported normalised response of CC(=O)O[C@H]1C(=O)[C@@]2(C)[C@H]([C@H](OC(=O)c3ccccc3)[C@]3(O)C[C@H](OC(=O)[C@H](O)[C@@H](NC(=O)c4ccccc4)c4ccccc4)C(C)=C1C3(C)C)[C@]1(OC(C)=O)CO[C@@H]1C[C@@H]2O [Paclitaxel] (100 nM) is ____.
Result: 47.7

* * *

- System: MFM-223
- Protocol notes: drug sensitivity score (DSS), CellTox Green (DSS (AUC-based score)); higher = stronger drug effect (viability inhibition or cytotoxicity); extreme values may be limits of the assay
- Experimental context: incubation time: 72 h
Assay metric: drug sensitivity score
Please give the numeric answer without any surrounding text.

O=C(c1ccc(OCCN2CCCCC2)cc1)c1c(-c2ccc(O)cc2)sc2cc(O)ccc12	0
CCOc1cc2ncc(C#N)c(Nc3ccc(OCc4ccccn4)c(Cl)c3)c2cc1NC(=O)/C=C/CN(C)C	0
COc1cc(Nc2ncc(F)c(Nc3ccc4c(n3)NC(=O)C(C)(C)O4)n2)cc(OC)c1OC	0
CN(c1ccccc1CNc1nc(Nc2ccc3c(c2)CC(=O)N3)ncc1C(F)(F)F)S(C)(=O)=O	0
COc1ccc(C2=N[C@@H](c3ccc(Cl)cc3)[C@@H](c3ccc(Cl)cc3)N2C(=O)N2CCNC(=O)C2)c(OC(C)C)c1	0

// next item, drug sensitivity score requested
Request: Fill in the blank: the reported drug sensitivity score of "C#Cc1cccc(Nc2ncnc3cc(OC)c(OCCCCCCC(=O)NO)cc23)c1" is ____.
Result: 5.86

* * *

- Tested on: MDA-MB-453
- Protocol notes: normalised response (% of control), CellTiter-Glo; higher = more viable cells (100 = DMSO, 0 = benzethonium chloride kill control)
- Experimental context: incubation time: 72 h
Assay metric: normalised response (%)
Give just the number in %; leave the unit off.

Cn1cnc2c(F)c(Nc3ccc(Br)cc3F)c(C(=O)NOCCO)cc21 [MEK-162] (1 nM)	103
COc1cccc2c1C(=O)c1c(O)c3c(c(O)c1C2=O)C[C@@](O)(C(C)=O)C[C@@H]3O[C@H]1C[C@H](N)[C@H](O)[C@H](C)O1 [Daunorubicin] (0.1 nM)	112
O=c1[nH]cc(F)c(=O)[nH]1 [Fluorouracil] (1 nM)	110

Request: Request body: readout normalised response, system MDA-MB-453, query COC1=C2C[C@@H](C)C[C@H](OC)[C@H](O)[C@@H](C)/C=C(\C)[C@H](OC(N)=O)[C@@H](OC)/C=C\C=C(/C)C(=O)NC(=CC1=O)C2=O [Geldanamycin] (10 nM) . Return the value.
Result: 106

Request: Request body: readout normalised response, system MDA-MB-453, query Nc1nccc(-c2c(-c3ccc(F)cc3)ncn2C2CCCCC2)n1 (1000 nM) . Return the value.
Result: 96.6

Request: Request body: readout normalised response, system MDA-MB-453, query O=c1[nH]cc(F)c(=O)[nH]1 [Fluorouracil] (1000 nM) . Return the value.
Result: 121

Request: Request body: readout normalised response, system MDA-MB-453, query C[C@@]1(C(=O)Nc2ccc(F)nc2)CCCN1c1nc(Nc2cc(C3CC3)n[nH]2)c2cccn2n1 (1000 nM) . Return the value.
Result: 115

Request: Request body: readout normalised response, system MDA-MB-453, query CC(C)C[C@H](NC(=O)[C@H](Cc1ccccc1)NC(=O)c1cnccn1)B(O)O [Bortezomib] (100 nM) . Return the value.
Result: 29.7
